All values here come from ChEMBL document CHEMBL5150050.

System: Human immunodeficiency virus 1
Assay Notes: Antiviral activity against HIV-1 KP-5mvcR infected in human TZM-bl cells assessed as inhibition of viral entry by measuring reduction in RLU by single round assay
Type: functional, organism-based
Condition Parameters: Human immunodeficiency virus 1, KP-5mvcR
Each entry below carries its recorded IC50.
Form entry: value (nM) — number only.

O=C1Nc2ccc(Cl)cc2[C@@](C#CC2CC2)(C(F)(F)F)O1 11

Proceed to the following item.
Look up IC50 for this molecule: N=C(N)NCCCCC(=O)NCCN1CCC(NC(=O)C(=O)Nc2ccc(Cl)cc2)CC1
145

----------
Test system: Human immunodeficiency virus 1
Assay Notes: Antiviral activity against HIV-1 KP-5mvcR infected in human TZM-bl cells assessed as inhibition of viral entry by measuring reduction in RLU by single round assay
Assay type: functional, organism-based
Condition Parameters: Human immunodeficiency virus 1, KP-5mvcR
Quantity Name: IC50
Answer by giving the amount and then stating its unit.

For the substance shown here, Ac-WEEWDKKIEEYTKKIEELIKKS-NH2 , give the reported IC50.
60 nM
